Provide the recorded protein stability index for the entries that follow.
B1: RHOBTB3 (parent)
chain: KVVEAHKIVLCAVSHVFMLLFNVK

- Variants of: B1
- method_notes: protein stability index of a GFP-peptide fusion (GPS, HEK-293T) (PSI 1-6); higher = more stable;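 also: lentivirally expressed fusions sorted by FACS into six bins by GFP to DsRed ratio, PSI derived from sequencing read proportions per bin multiplied by bin number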
- condition_set: c terminus: a fixed tail appended
Answers are plain numbers.

{"columns": ["monomer_sequence", "measured_property", "meas_value"],
 "data": [
  ["KVTEAHKIVLCAVSHVFMLLFNVK", "protein stability index", 2.36],
  ["KVVEAHKIVLCAVSKVFMLLFNVK", "protein stability index", 2.17]
]}

Query :: State the recorded protein stability index for this entry: `KVVEAHKIVLCAVSHVFMLLFKVK`
Result :: 1.9
